Biological target: HLA-B*0702 (Homo sapiens, UniProt P01889)
Construct: expressed in transfected cells; host or cells: TAP-deficient T2 cells transfected with HLA-B*0702 (T2-B*0702)
Conditions: ratio of concentrations of tested and R10V reference peptide needed to reach 20% of maximal HLA-B*0702 on T2 cells; the lower, the stronger the binding
This section presents sequences with their documented Fixation Test RA (relative affinity) values.
Output: the number by itself.

Lookup: Entry under review: TPKKIKPPL [T9PL, HIV-1 VIF derived HLA-B7 epitopic peptide] . Reported Fixation Test RA (relative affinity)?
Found: 1.29

Lookup: Please give the result for SPHPRISSEV [S10EV, HIV-1 VIF derived HLA-B7 epitopic peptide] too.
Found: 1.11

Lookup: Please give the result for APTKAKRRVV [A10VV, HIV-1 ENV derived HLA-B7 epitopic peptide] too.
Found: 1.14

Lookup: Please give the result for PPQGSQTHQV [P10QV, HIV-1 TAT derived HLA-B7 epitopic peptide] too.
Found: 8.97

Lookup: Please give the result for LPPLDRLTL [L9TL, HIV-1 REV derived HLA-B7 epitopic peptide] too.
Found: 3.51

Others:
Lookup: Entry under review: IPLGDARLVI [I10VI, HIV-1 VIF derived HLA-B7 epitopic peptide] . Reported Fixation Test RA (relative affinity)?
Found: 2.33

Lookup: Please give the result for SPVLRLRPPV [S10PV, Non-canonic ARFP (alternative reading frame peptide), POL] too.
Found: 0.85

Lookup: Please give the result for RPVVSTQLLL [R10LL, HIV-1 ENV derived HLA-B7 epitopic peptide] too.
Found: 2.25

Lookup: Please give the result for LPLPPLDRL [L9RL, HIV-1 REV derived HLA-B7 epitopic peptide] too.
Found: 6.13

Lookup: Please give the result for YPLASLRSLF [Y10LF] too.
Found: 3.25

Lookup: Please give the result for HPRISSEVHI [H10HI, HIV-1 VIF derived HLA-B7 epitopic peptide] too.
Found: 3.70

Lookup: Please give the result for MPVYPQTPT [M9PT, Non-canonic ARFP (alternative reading frame peptide), ENV] too.
Found: 0.94

Lookup: Please give the result for KPPLPSVTKL [K10KL, HIV-1 VIF derived HLA-B7 epitopic peptide] too.
Found: 3.55

Lookup: Please give the result for QPIQIAIAAL [Q10AL, HIV-1 VPU derived HLA-B7 epitopic peptide] too.
Found: 6.5

Lookup: Please give the result for QPRSDTHVF [Q9VF, Non-canonic ARFP (alternative reading frame peptide), GAG] too.
Found: 1.56
